# Tested on: Cyperus serotinus, Rottb.
# assay.summary: Preemergence weed control under flooded paddy conditions, CYPSE (Flatsedge); further: meaning of each grade not given here
# Format: in vivo
# assay.context: 0.0625 kg/ha, preemergence, rated three to four weeks after treatment
value.type: herbicidal effect rating, CYPSE
Keep it simple and answer with nothing but the number.

# count of solved cases: 3
>  <line.notation>
Cn1c(C(F)(F)F)cc(=O)n(-c2ccc3onc(-c4ccccc4)c3c2)c1=O

>  <value.type>
herbicidal effect rating, CYPSE

>  <recorded.result>
2.0

$$$$
>  <line.notation>
CCN(CC)C(=O)COc1ccc(C)cc1-c1nsc2ccc(-n3c(=O)cc(C(F)(F)F)n(C)c3=O)cc12

>  <value.type>
herbicidal effect rating, CYPSE

>  <recorded.result>
0.0

$$$$
>  <line.notation>
Cc1ccc(OCC(=O)OCCCl)c(-c2nsc3ccc(-n4c(=O)cc(C(F)(F)F)n(C)c4=O)cc23)c1

>  <value.type>
herbicidal effect rating, CYPSE

>  <recorded.result>
0.0

$$$$

Could you now look at the following molecule, please?
Problem: // returns reported herbicidal effect rating, CYPSE for input COCc1nsc2ccc(-n3c(=O)cc(C(F)(F)F)n(C)c3=O)cc12
Solution: 7.0
